Tested on: 415267-285-R-J2-PDC complex spheroid viability;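 also: luminescence used as stand-in measure of viable cells; spheroids exposed to compounds for one week before readout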
Assay: Anticancer human tumor 415267-285-R-J2-PDC patient-derived breast carcinoma cell line growth inhibition [POLQ]; active = viability on the fitted dose curve at most 10% of control; inactive = the rest
Conditions: second compound 0.1 µM; first compound 1 µM
// classify into active, inactive

These solved cases illustrate the format of a correct answer.
compound | tested.target | group
C#Cc1c(F)ccc2cc(O)cc(-c3ncc4c(N5CC6CCC(C5)N6)nc(OCC56CCCN5CC(F)C6)nc4c3F)c12 (stereo not given) + Cc1cccc(N(C)C(=O)C2C(O)CCN2c2nc(C)cc(C(F)(F)F)c2C#N)c1 | 415267-285-R-J2-PDC complex spheroid viability | inactive
COc1cccc2c1C(=O)c1c(O)c3c(c(O)c1C2=O)CC(O)(C(=O)CO)CC3OC1CC(N)C(O)C(C)O1 (stereo not given) + COC1C(OC(N)=O)C(O)C(Oc2ccc3c(O)c(NC(=O)c4ccc(O)c(CC=C(C)C)c4)c(=O)oc3c2C)OC1(C)C | 415267-285-R-J2-PDC complex spheroid viability | active
CCCS(=O)(=O)Nc1ccc(F)c(C(=O)c2c[nH]c3ncc(-c4ccc(Cl)cc4)cc23)c1F + COC1C(OC(N)=O)C(O)C(Oc2ccc3c(O)c(NC(=O)c4ccc(O)c(CC=C(C)C)c4)c(=O)oc3c2C)OC1(C)C | 415267-285-R-J2-PDC complex spheroid viability | inactive
Nc1ccn(C2OC(CO)C(O)C2(F)F)c(=O)n1 (stereo not given) + COC1C(OC(N)=O)C(O)C(Oc2ccc3c(O)c(NC(=O)c4ccc(O)c(CC=C(C)C)c4)c(=O)oc3c2C)OC1(C)C | 415267-285-R-J2-PDC complex spheroid viability | active
CC1COCCN1c1cc(C2(S(C)(=N)=O)CC2)nc(-c2ccnc3[nH]ccc23)n1 (stereo not given) + Cc1cccc(N(C)C(=O)C2C(O)CCN2c2nc(C)cc(C(F)(F)F)c2C#N)c1 | 415267-285-R-J2-PDC complex spheroid viability | inactive
CCc1cc2c(N3CCc4c(cc(Cn5ccnc5)cc4-c4cn(C)nc4C(F)(F)F)C3=O)ccnc2c(OC)n1 + COC1C(OC(N)=O)C(O)C(Oc2ccc3c(O)c(NC(=O)c4ccc(O)c(CC=C(C)C)c4)c(=O)oc3c2C)OC1(C)C | 415267-285-R-J2-PDC complex spheroid viability | inactive
CC1COCCN1c1cc(C2(O)CC3CCC(C2)O3)c2cnn(-c3ccn[nH]3)c2n1 (stereo not given) + COC1C(OC(N)=O)C(O)C(Oc2ccc3c(O)c(NC(=O)c4ccc(O)c(CC=C(C)C)c4)c(=O)oc3c2C)OC1(C)C | 415267-285-R-J2-PDC complex spheroid viability | active
CCc1c2c(nc3ccc(O)cc13)-c1cc3c(c(=O)n1C2)COC(=O)[C@]3(O)CC + COC1C(OC(N)=O)C(O)C(Oc2ccc3c(O)c(NC(=O)c4ccc(O)c(CC=C(C)C)c4)c(=O)oc3c2C)OC1(C)C | 415267-285-R-J2-PDC complex spheroid viability | active

What is the recorded call for this compound in the test? CNCc1ccc(-c2[nH]c3cc(F)cc4c3c2CCNC4=O)cc1 + COC1C(OC(N)=O)C(O)C(Oc2ccc3c(O)c(NC(=O)c4ccc(O)c(CC=C(C)C)c4)c(=O)oc3c2C)OC1(C)C inactive

What is the recorded call for this compound in the test? CCCS(=O)(=O)Nc1ccc(F)c(C(=O)c2c[nH]c3ncc(-c4ccc(Cl)cc4)cc23)c1F + Nc1ccc(C#CCN(C(=O)Cc2ncc(C(F)(F)F)cc2C(F)(F)F)c2ccc(F)cc2)nn1 inactive
